# Target Desc: human CB1 receptor (Homo sapiens)
# Construct: U373MG cells naturally expressing the human CB1 receptor; endogenous in cells
# Sequence (P21554 whole entry): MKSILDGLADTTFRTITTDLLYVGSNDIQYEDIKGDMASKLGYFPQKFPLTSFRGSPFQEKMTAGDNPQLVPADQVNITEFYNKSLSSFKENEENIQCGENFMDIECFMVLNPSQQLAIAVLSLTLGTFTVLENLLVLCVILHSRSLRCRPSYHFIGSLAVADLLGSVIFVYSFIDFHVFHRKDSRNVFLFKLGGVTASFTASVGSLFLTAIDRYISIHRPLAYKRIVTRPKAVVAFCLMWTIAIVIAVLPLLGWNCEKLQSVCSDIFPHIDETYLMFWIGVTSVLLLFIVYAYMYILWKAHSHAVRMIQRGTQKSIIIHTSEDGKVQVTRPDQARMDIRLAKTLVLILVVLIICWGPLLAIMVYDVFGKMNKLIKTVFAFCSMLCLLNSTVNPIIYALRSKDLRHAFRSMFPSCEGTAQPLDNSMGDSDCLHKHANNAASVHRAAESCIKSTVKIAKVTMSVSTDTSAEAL
# Assay Details: intracellular cyclic AMP functional test in U373MG cells (HTRF cAMP Dynamic Kit)
# Measurement Context: U373MG cells naturally expressing the human CB1 receptor
Measured Quantity: IC50 (nM)

Record excerpt, results attached:
[[record]]
molecule = "CS(=O)(=O)N(c1cccc(C(=O)NCCO)c1)C1CN(C(c2ccc(Cl)cc2)c2ccc(Cl)cc2)C1"
assay_result = 61

[[record]]
molecule = "CC1(C)OCC(CNC(=O)c2cccc(N(C3CN(C(c4ccc(Cl)cc4)c4ccc(Cl)cc4)C3)S(C)(=O)=O)c2)O1 (single isomer, unassigned; (-))"
assay_result = 22

[[record]]
molecule = "CS(=O)(=O)N(c1cc(F)cc(C(=O)NCC(O)C(F)(F)F)c1)C1CN(C(c2ccc(Cl)cc2)c2ccc(Cl)cc2)C1 (stereo not drawn)"
assay_result = 66

[[record]]
molecule = "C[C@@H](CO)NC(=O)c1cccc(N(C2CN(C(c3ccc(Cl)cc3)c3ccc(Cl)cc3)C2)S(C)(=O)=O)c1"
assay_result = 15


A = CS(=O)(=O)N(c1cc(F)cc(C(=O)NC(CO)CO)c1)C1CN(C(c2ccc(Cl)cc2)c2ccc(Cl)cc2)C1
B = CC(CO)(CO)NC(=O)c1cccc(N(C2CN(C(c3ccc(Cl)cc3)c3ccc(Cl)cc3)C2)S(C)(=O)=O)c1
C = CS(=O)(=O)N(c1cc(F)cc(C(=O)N[C@H]2COC[C@@H]2O)c1)C1CN(C(c2ccc(Cl)cc2)c2ccc(Cl)cc2)C1 (racemic)
D = CS(=O)(=O)N(c1cccc(C(=O)NC2(CCO)CC2)c1)C1CN(C(c2ccc(Cl)cc2)c2ccc(Cl)cc2)C1
Q: Descending sort on IC50 required. Note for the reader: the ranking is given by listing the labels in the order requested.
Ans: C, D, A, B
(C: 72 nM, D: 38 nM, A: 20 nM, B: 6 nM)
